target: UniProtKB P34972
Each record here notes measured Ki.
Recorded Endpoint: Ki (nM)

record_smiles=CSC(=O)N1CC(C(C)C)(C(C)C)CSC1=Nc1cccc2ccccc12 units_text=nM reported_measurement=1.7
record_smiles=CSC(=S)N1CC(C(C)C)(C(C)C)CSC1=Nc1ccc(N(C)C)c2ccccc12 units_text=nM reported_measurement=11.3
record_smiles=CSC(=S)N1CC(C(C)C)(C(C)C)CSC1=Nc1cccc2cc(OCC(=O)OC(C)(C)C)ccc12 units_text=nM reported_measurement=1.5
record_smiles=CSC(=O)N1CC(C(C)C)(C(C)C)CSC1=Nc1ccc(F)c2ccccc12 units_text=nM reported_measurement=1.4
record_smiles=CSC(=S)N1CC(C(C)C)(C(C)C)CSC1=Nc1ccc(F)c2ccccc12 units_text=nM reported_measurement=1.2
record_smiles=CSC(=S)N1CC2(CCCCC2)CSC1=Nc1ccc(C#N)c2ccccc12 units_text=nM reported_measurement=1
record_smiles=C=CCC1(CC=C)CSC(=Nc2cccc3ccccc23)N(C(=S)SC)C1 units_text=nM reported_measurement=4.8
record_smiles=CCCC1(CCC)CSC(=Nc2cccc3ccccc23)N(C(=S)SC)C1 units_text=nM reported_measurement=1.5

* * *

Each record here notes measured melting point.
Recorded Endpoint: melting point

record_smiles=CSC(=S)N1CC2(CCCCC2)CSC1=Nc1ccc(C#N)c2ccccc12 reported_measurement="164 to 165 °C"
record_smiles=CSC(=S)N1CC(C(C)C)(C(C)C)CSC1=Nc1ccc(Cl)c2ccccc12 reported_measurement="86.5 to 87.5 °C"
record_smiles=CCCC1(CCC)CSC(=Nc2cccc3ccccc23)N(C(=O)SC)C1 reported_measurement="108.5 to 109.5 °C"
record_smiles=CSC(=O)N1CC(C(C)C)(C(C)C)CSC1=Nc1ccc(F)c2ccccc12 reported_measurement="109 to 110 °C"
record_smiles=CSC(=O)N1CC(C(C)C)(C(C)C)CSC1=Nc1ccc(Cl)c2ccccc12 reported_measurement="111.5 to 112.5 °C"
record_smiles=CSC(=S)N1CC2(CCCCC2)CSC1=Nc1ccc(Cl)c2ccccc12 reported_measurement="181 to 182 °C"
record_smiles=CCCC1(CCC)CSC(=Nc2cccc3ccccc23)N(C(=S)SC)C1 reported_measurement="139 to 140.5 °C"

* * *

Parameter 'readout' = Ki; parameter 'system' = human CB2R (Homo sapiens, UniProt P34972).
Sequence (P34972 whole entry): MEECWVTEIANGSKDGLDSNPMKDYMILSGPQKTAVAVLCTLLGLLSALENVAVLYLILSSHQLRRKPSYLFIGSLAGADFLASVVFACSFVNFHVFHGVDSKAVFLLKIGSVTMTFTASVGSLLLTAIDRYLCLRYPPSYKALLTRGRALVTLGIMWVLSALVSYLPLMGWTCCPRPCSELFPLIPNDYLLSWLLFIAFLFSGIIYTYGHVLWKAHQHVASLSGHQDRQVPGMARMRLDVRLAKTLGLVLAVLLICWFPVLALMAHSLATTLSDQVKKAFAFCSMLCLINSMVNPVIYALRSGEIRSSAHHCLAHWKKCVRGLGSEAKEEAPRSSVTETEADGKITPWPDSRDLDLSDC
Recorded Endpoint: Ki (nM)

record_smiles=CSC(=S)N1CC(C(C)C)(C(C)C)CSC1=Nc1ccc(Cl)c2ccccc12 reported_measurement=0.9
record_smiles=CCCC1(CCC)CSC(=Nc2cccc3ccccc23)N(C(=O)SC)C1 reported_measurement=1
record_smiles=CSC(=S)N1CC(C(C)C)(C(C)C)CSC1=Nc1cccc2ccccc12 reported_measurement=0.3
record_smiles=CSC(=O)N1CC(C(C)C)(C(C)C)CSC1=Nc1ccc(Cl)c2ccccc12 reported_measurement=5.9

* * *

Recorded Endpoint: melting point

record_smiles=CSC(=S)N1CC(C(C)C)(C(C)C)CSC1=Nc1cccc2ccccc12 reported_measurement="121 to 122 °C"
record_smiles=CSC(=S)N1CC(C(C)C)(C(C)C)CSC1=Nc1ccc(F)c2ccccc12 reported_measurement="118 to 119 °C"
record_smiles=CSC(=O)N1CC(C(C)C)(C(C)C)CSC1=Nc1cccc2ccccc12 reported_measurement="98 to 99 °C"
record_smiles=CSC(=S)N1CC2(CCCCC2)CSC1=Nc1cccc2ccccc12 reported_measurement="118 to 119 °C"
record_smiles=CSC(=S)N1CC2(CCCCC2)CSC1=Nc1ccc(F)c2ccccc12 reported_measurement="139 to 140 °C"

* * *

target: human CB1R (Homo sapiens, UniProt P21554); construct: expressed in transfected cells; host or cells: CHO cells (crude membrane fractions); assay: Human CB receptor binding inhibition ([3H]CP55940), CB1R; settings: membranes of CB1R-expressing CHO cells, 0.5 nM [3H]CP55940, 2 hr at 25° C.; read-out: CB receptor binding inhibition Ki CB1
Sequence (P21554 whole entry): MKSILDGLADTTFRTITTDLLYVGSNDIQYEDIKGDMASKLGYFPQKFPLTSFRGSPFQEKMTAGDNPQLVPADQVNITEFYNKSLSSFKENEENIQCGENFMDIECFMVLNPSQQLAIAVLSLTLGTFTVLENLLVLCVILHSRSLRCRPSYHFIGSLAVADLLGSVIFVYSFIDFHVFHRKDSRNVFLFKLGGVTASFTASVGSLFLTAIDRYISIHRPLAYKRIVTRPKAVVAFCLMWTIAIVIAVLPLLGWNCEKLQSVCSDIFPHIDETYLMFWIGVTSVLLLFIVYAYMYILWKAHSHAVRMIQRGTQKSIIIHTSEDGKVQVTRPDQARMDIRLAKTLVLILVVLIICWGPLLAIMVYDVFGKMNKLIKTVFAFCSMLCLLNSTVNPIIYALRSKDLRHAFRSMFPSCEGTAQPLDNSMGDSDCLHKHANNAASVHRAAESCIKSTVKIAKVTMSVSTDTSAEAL
pKi: −log10 of the molar value.
Recorded Endpoint: pKi

record_smiles=CSC(=S)N1CC2(CCCCC2)CSC1=Nc1ccc(C#N)c2ccccc12 reported_measurement=7.27
record_smiles=CSC(=S)N1CC2(CCCCC2)CSC1=Nc1ccc(F)c2ccccc12 reported_measurement=7.23
record_smiles=CSC(=S)N1CC(C(C)C)(C(C)C)CSC1=Nc1cccc2cc(OCC(=O)OC(C)(C)C)ccc12 reported_measurement=7.46
record_smiles=CCCC1(CCC)CSC(=Nc2cccc3ccccc23)N(C(=O)SC)C1 reported_measurement=7.37
record_smiles=CSC(=S)N1CC(C(C)C)(C(C)C)CSC1=Nc1cccc2ccccc12 reported_measurement=7.89
record_smiles=CSC(=S)N1CC(C(C)C)(C(C)C)CSC1=Nc1ccc(Cl)c2ccccc12 reported_measurement=8.00
record_smiles=CSC(=O)N1CC(C(C)C)(C(C)C)CSC1=Nc1cccc2ccccc12 reported_measurement=8.22
record_smiles=CSC(=O)N1CC(C(C)C)(C(C)C)CSC1=Nc1ccc(F)c2ccccc12 reported_measurement=7.54
record_smiles=CSC(=S)N1CC(C(C)C)(C(C)C)CSC1=Nc1ccc(N(C)C)c2ccccc12 reported_measurement=7.67
record_smiles=CSC(=S)N1CC(C(C)C)(C(C)C)CSC1=Nc1ccc(F)c2ccccc12 reported_measurement=7.70
record_smiles=C=CCC1(CC=C)CSC(=Nc2cccc3ccccc23)N(C(=S)SC)C1 reported_measurement=7.50
record_smiles=CSC(=S)N1CC2(CCCCC2)CSC1=Nc1cccc2ccccc12 reported_measurement=7.53
record_smiles=CSC(=O)N1CC(C(C)C)(C(C)C)CSC1=Nc1ccc(Cl)c2ccccc12 reported_measurement=7.60
record_smiles=CSC(=S)N1CC2(CCCCC2)CSC1=Nc1ccc(Cl)c2ccccc12 reported_measurement=7.68
record_smiles=CCCC1(CCC)CSC(=Nc2cccc3ccccc23)N(C(=S)SC)C1 reported_measurement=7.70

* * *

biological target: human CB1R (Homo sapiens); test: CBR-mediated suppression of forskolin-stimulated cAMP synthesis, CHO cells expressing CB1R; conditions: 4 μM forskolin, read-out: Inhibition of cAMP synthesis IC50 CB1
pIC50: −log10 of the molar value.
Each record here notes measured pIC50.
Recorded Endpoint: pIC50

record_smiles=CSC(=S)N1CC2(CCCCC2)CSC1=Nc1ccc(F)c2ccccc12 tested_target="human CB1R (Homo sapiens)" reported_measurement=7.57
record_smiles=CSC(=S)N1CC(C(C)C)(C(C)C)CSC1=Nc1ccc(F)c2ccccc12 tested_target="human CB1R (Homo sapiens)" reported_measurement=7.85
record_smiles=CSC(=S)N1CC(C(C)C)(C(C)C)CSC1=Nc1ccc(Cl)c2ccccc12 tested_target="human CB1R (Homo sapiens)" reported_measurement=7.89
record_smiles=CSC(=S)N1CC(C(C)C)(C(C)C)CSC1=Nc1cccc2ccccc12 tested_target="human CB1R (Homo sapiens)" reported_measurement=8.09
record_smiles=CSC(=S)N1CC2(CCCCC2)CSC1=Nc1ccc(C#N)c2ccccc12 tested_target="human CB1R (Homo sapiens)" reported_measurement=7.28
record_smiles=CSC(=O)N1CC(C(C)C)(C(C)C)CSC1=Nc1ccc(Cl)c2ccccc12 tested_target="human CB1R (Homo sapiens)" reported_measurement=7.62
record_smiles=CSC(=O)N1CC(C(C)C)(C(C)C)CSC1=Nc1cccc2ccccc12 tested_target="human CB1R (Homo sapiens)" reported_measurement=7.76
record_smiles=CSC(=O)N1CC(C(C)C)(C(C)C)CSC1=Nc1ccc(F)c2ccccc12 tested_target="human CB1R (Homo sapiens)" reported_measurement=7.46
record_smiles=CSC(=S)N1CC2(CCCCC2)CSC1=Nc1cccc2ccccc12 tested_target="human CB1R (Homo sapiens)" reported_measurement=7.98

* * *

Parameter 'readout' = Ki; parameter 'system' = human CB2R (Homo sapiens, UniProt P34972).
Recorded Endpoint: Ki (nM)

record_smiles=CSC(=S)N1CC2(CCCCC2)CSC1=Nc1ccc(F)c2ccccc12 recorded_endpoint=Ki units_text=nM reported_measurement=0.8
record_smiles=CSC(=S)N1CC2(CCCCC2)CSC1=Nc1ccc(Cl)c2ccccc12 recorded_endpoint=Ki units_text=nM reported_measurement=1.2
record_smiles=CSC(=S)N1CC2(CCCCC2)CSC1=Nc1cccc2ccccc12 recorded_endpoint=Ki units_text=nM reported_measurement=6

* * *

molecular target: human CB2R (Homo sapiens); experiment: CBR-mediated suppression of forskolin-stimulated cAMP synthesis, CHO cells expressing CB2R; conditions: 4 μM forskolin, read-out: Inhibition of cAMP synthesis IC50 CB2
pIC50: −log10 of the molar value.
Each record here notes measured pIC50.
Recorded Endpoint: pIC50

record_smiles=CSC(=S)N1CC(C(C)C)(C(C)C)CSC1=Nc1ccc(Cl)c2ccccc12 tested_target="human CB2R (Homo sapiens)" reported_measurement=8.82
record_smiles=CSC(=S)N1CC2(CCCCC2)CSC1=Nc1cccc2ccccc12 tested_target="human CB2R (Homo sapiens)" reported_measurement=8.77
record_smiles=CSC(=O)N1CC(C(C)C)(C(C)C)CSC1=Nc1ccc(Cl)c2ccccc12 tested_target="human CB2R (Homo sapiens)" reported_measurement=7.32
